# MEASUREMENT CONTEXT: TIDE 2X 0.78 g/l, 6 gpg, pH 8.2, 30 min at 20°C, A405; variant vs wild-type thermolysin at same protein concentration

[
  {
    "MOLECULE": "Q273Y: single-substitution thermolysin variant (SEQ ID NO:3 numbering) (protein, listed as Geobacillus caldoproteolyticus) ITGTSTVGVGRGVLGDQKNINTTYSTYYYLQDNTRGNGIFTYDAKYRTTLPGSLWADADNQFFASYDAPAVDAHYYAGVTYDYYKNVHNRLSYDGNNAAIRSSVHYSQGYNNAFWNGSQMVYGDGDGQTFIPLSGGIDVVAHELTHAVTDYTAGLIYQNESGAINEAISDIFGTLVEFYANKNPDWEIGEDVYTPGISGDSLRSMSDPAKYGDPDHYSKRYTGTQDNGGVHINSGIINKAAYLISQGGTHYGVSVVGIGRDKLGKIFYRALTYYLTPTSNFSQLRAAAVQSATDLYGSTSQEVASVKQAFDAVGVK",
    "PI (performance index), stain removal": 1.09
  }
]
